Species on record: Mus musculus
assay remarks: animal or person
test settings: Kunming, Ear, po, read-out: INH
Description: Antiinflammatory activity in Kunming mouse assessed as inhibition of xylene-induced ear edema at 150 mg/kg, po administered 45 mins prior to xylene challenge measured 15 mins post challenge
Given measured inhibition in vivo at 150 mg/kg, output satisfied if it is greater than or equal to 50% and not satisfied if not.

Prompt: Please check the record CC(C)(C)OC(=O)NCC(=O)Oc1cccc2oc(=O)[nH]c12 and state if its inhibition in vivo at 150 mg/kg is at or above 50%.
Completion: satisfied

Prompt: Please check the record CSCCC(NC(=O)OC(C)(C)C)C(=O)Oc1cccc2oc(=O)[nH]c12 (configuration not stated) and state if its inhibition in vivo at 150 mg/kg is at or above 50%.
Completion: not satisfied

Prompt: Please check the record CC(C)(C)OC(=O)NC(Cc1ccccc1)C(=O)Oc1cccc2oc(=O)[nH]c12 (configuration not stated) and state if its inhibition in vivo at 150 mg/kg is at or above 50%.
Completion: satisfied

Prompt: Please check the record CC(C)C(NC(=O)OC(C)(C)C)C(=O)Oc1cccc2oc(=O)[nH]c12 (configuration not stated) and state if its inhibition in vivo at 150 mg/kg is at or above 50%.
Completion: not satisfied

Prompt: Please check the record CC(C)(C)OC(=O)NC(Cc1c[nH]c2ccccc12)C(=O)Oc1cccc2oc(=O)[nH]c12 (configuration not stated) and state if its inhibition in vivo at 150 mg/kg is at or above 50%.
Completion: satisfied

Prompt: Please check the record CC(NC(=O)OC(C)(C)C)C(=O)Oc1cccc2oc(=O)[nH]c12 (configuration not stated) and state if its inhibition in vivo at 150 mg/kg is at or above 50%.
Completion: not satisfied

====

system under test: Bifunctional epoxide hydrolase 2 (Homo sapiens)
Sequence (whole entry): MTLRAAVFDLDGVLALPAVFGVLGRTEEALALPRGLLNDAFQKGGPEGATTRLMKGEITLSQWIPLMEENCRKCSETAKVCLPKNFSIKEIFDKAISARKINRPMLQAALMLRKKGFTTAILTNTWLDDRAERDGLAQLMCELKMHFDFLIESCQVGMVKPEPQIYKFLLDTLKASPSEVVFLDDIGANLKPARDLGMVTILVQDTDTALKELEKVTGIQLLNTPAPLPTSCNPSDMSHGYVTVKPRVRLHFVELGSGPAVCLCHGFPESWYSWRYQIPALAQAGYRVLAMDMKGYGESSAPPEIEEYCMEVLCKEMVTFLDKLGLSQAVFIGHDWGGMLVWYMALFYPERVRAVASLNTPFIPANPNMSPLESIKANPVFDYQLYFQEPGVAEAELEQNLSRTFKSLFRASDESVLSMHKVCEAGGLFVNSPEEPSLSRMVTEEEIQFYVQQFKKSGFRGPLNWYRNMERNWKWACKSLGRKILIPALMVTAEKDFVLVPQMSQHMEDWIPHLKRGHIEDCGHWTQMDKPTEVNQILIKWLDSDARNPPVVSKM
assay remarks: Inhibition of recombinant human sEH expressed in Escherichia coli assessed as inhibition of substrate PHOME hydrolysis to 6-methoxy-2-naphthaldehyde at 10 ug/ml after 5 mins by fluorescence assay
Given measured inhibition, output rule met if it is greater than or equal to 40% and rule not met if not.

Here are 10 compounds together with their reported answers.
O=C(Oc1cccc2oc(=O)[nH]c12)c1cccc([N+](=O)[O-])c1 ... rule met
O=c1[nH]c2c(OS(=O)(=O)c3ccc(Cl)cc3)cccc2o1 ... rule not met
O=c1[nH]c2c(O[C@@H]3O[C@H](CO)[C@@H](O)[C@H](O)[C@H]3O)cccc2o1 ... rule met
O=c1[nH]c2c(OS(=O)(=O)c3ccc([N+](=O)[O-])cc3)cccc2o1 ... rule not met
O=c1[nH]c2c(OS(=O)(=O)c3ccccc3Cl)cccc2o1 ... rule not met
O=C(Oc1cccc2oc(=O)[nH]c12)c1ccccc1[N+](=O)[O-] ... rule not met
CSCCC(NC(=O)OC(C)(C)C)C(=O)Oc1cccc2oc(=O)[nH]c12 (centres undefined) ... rule met
Cc1ccccc1C(=O)Oc1cccc2oc(=O)[nH]c12 ... rule not met
CC(C)(C)OC(=O)NC(Cc1ccccc1)C(=O)Oc1cccc2oc(=O)[nH]c12 (centres undefined) ... rule met
O=c1[nH]c2c(OS(=O)(=O)c3cccc(Cl)c3)cccc2o1 ... rule not met

Prompt: Please check the record Cc1ccc(C(=O)Oc2cccc3oc(=O)[nH]c23)cc1 and state if its inhibition is at or above 40%.
Completion: rule met

Prompt: Please check the record O=c1[nH]c2c(OS(=O)(=O)c3ccccc3)cccc2o1 and state if its inhibition is at or above 40%.
Completion: rule not met

====

Read-out record for Bifunctional epoxide hydrolase 2 (Homo sapiens): IC50
Quick note: give the figure in µM, leave out the unit.

Here's what some known entries look like.
CC(C)(C)OC(=O)NCC(=O)Oc1cccc2oc(=O)[nH]c12 ... 17.2
CC(C)(C)OC(=O)N1CCCC1C(=O)Oc1cccc2oc(=O)[nH]c12 (configuration not stated) ... 1.72
CC(C)(C)OC(=O)NC(Cc1ccccc1)C(=O)Oc1cccc2oc(=O)[nH]c12 (configuration not stated) ... 2.67
CC(NC(=O)OC(C)(C)C)C(=O)Oc1cccc2oc(=O)[nH]c12 (configuration not stated) ... 16.4
O=C(Oc1cccc2oc(=O)[nH]c12)c1cccc([N+](=O)[O-])c1 ... 3
CSCCC(NC(=O)OC(C)(C)C)C(=O)Oc1cccc2oc(=O)[nH]c12 (configuration not stated) ... 3.02

Prompt: Hello, I am looking for reported IC50 with Bifunctional epoxide hydrolase 2 (Homo sapiens) for Cc1ccc(C(=O)Oc2cccc3oc(=O)[nH]c23)cc1 . Could you help?
Completion: 1.07

====

system under test: Bifunctional epoxide hydrolase 2 (Homo sapiens) (UniProt P34913)
Sequence (whole entry): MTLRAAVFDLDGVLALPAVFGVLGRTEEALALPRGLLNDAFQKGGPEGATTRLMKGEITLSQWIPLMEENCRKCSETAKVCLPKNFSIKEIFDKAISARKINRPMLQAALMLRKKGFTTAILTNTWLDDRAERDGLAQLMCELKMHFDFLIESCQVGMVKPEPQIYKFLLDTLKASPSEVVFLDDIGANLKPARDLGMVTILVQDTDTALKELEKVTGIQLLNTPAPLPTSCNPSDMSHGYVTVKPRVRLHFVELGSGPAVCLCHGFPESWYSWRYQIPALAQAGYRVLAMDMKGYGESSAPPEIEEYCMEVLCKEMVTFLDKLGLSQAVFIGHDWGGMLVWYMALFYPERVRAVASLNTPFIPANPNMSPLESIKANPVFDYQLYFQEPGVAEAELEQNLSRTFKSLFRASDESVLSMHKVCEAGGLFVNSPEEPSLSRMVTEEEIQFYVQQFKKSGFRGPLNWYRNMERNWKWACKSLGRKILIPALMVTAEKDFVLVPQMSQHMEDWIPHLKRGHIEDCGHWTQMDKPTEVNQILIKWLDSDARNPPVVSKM
assay remarks: Inhibition of recombinant human sEH expressed in Escherichia coli assessed as inhibition of substrate PHOME hydrolysis to 6-methoxy-2-naphthaldehyde at 10 ug/ml after 5 mins by fluorescence assay
Please assign a class to every record based on measured inhibition, with ranges lower level: < 30%; middle level: ≥ 30% and < 50%; upper level: ≥ 50%

Here are 6 molecules together with their reported answers.
Cc1ccc(S(=O)(=O)Oc2cccc3oc(=O)[nH]c23)cc1 ... middle level
O=C(Oc1cccc2oc(=O)[nH]c12)c1ccc(Cl)cc1 ... lower level
CC(C)(C)OC(=O)NC(Cc1c[nH]c2ccccc12)C(=O)Oc1cccc2oc(=O)[nH]c12 (configuration not stated) ... upper level
O=c1[nH]c2c(O[C@@H]3O[C@H](CO)[C@H](O)[C@H](O)[C@H]3O)cccc2o1 ... upper level
CC(C)(C)OC(=O)N1CCCC1C(=O)Oc1cccc2oc(=O)[nH]c12 (configuration not stated) ... upper level
O=C(Oc1cccc2oc(=O)[nH]c12)c1ccccc1 ... lower level

Prompt: Using the reported inhibition, which band applies to O=C(Oc1cccc2oc(=O)[nH]c12)c1ccc([N+](=O)[O-])cc1 ?
Completion: lower level

Prompt: Using the reported inhibition, which band applies to O=c1[nH]c2c(OS(=O)(=O)c3ccccc3[N+](=O)[O-])cccc2o1 ?
Completion: middle level

Prompt: Using the reported inhibition, which band applies to Cc1ccccc1S(=O)(=O)Oc1cccc2oc(=O)[nH]c12 ?
Completion: lower level

Prompt: Using the reported inhibition, which band applies to CC(C)(C)OC(=O)NCC(=O)Oc1cccc2oc(=O)[nH]c12 ?
Completion: upper level

Prompt: Using the reported inhibition, which band applies to CC(NC(=O)OC(C)(C)C)C(=O)Oc1cccc2oc(=O)[nH]c12 (configuration not stated) ?
Completion: upper level

====

Listed here: items and their measured inhibition.
system under test: Bifunctional epoxide hydrolase 2 (Homo sapiens) (UniProt P34913)
assay remarks: Inhibition of recombinant human sEH expressed in Escherichia coli assessed as inhibition of substrate PHOME hydrolysis to 6-methoxy-2-naphthaldehyde at 10 ug/ml after 5 mins by fluorescence assay

O=C(Oc1cccc2oc(=O)[nH]c12)c1ccccc1Cl ... 30.8%
Cc1cccc(S(=O)(=O)Oc2cccc3oc(=O)[nH]c23)c1 ... 30.9%
CC(C)C(NC(=O)OC(C)(C)C)C(=O)Oc1cccc2oc(=O)[nH]c12 (stereo unspecified) ... 48%

Prompt: Which inhibition value is on record for O=c1[nH]c2c(OS(=O)(=O)c3cccc([N+](=O)[O-])c3)cccc2o1 ?
Completion: 31.6%

Prompt: Which inhibition value is on record for O=C(Oc1cccc2oc(=O)[nH]c12)c1cccc(Cl)c1 ?
Completion: 25.3%

Prompt: Which inhibition value is on record for Cc1cccc(C(=O)Oc2cccc3oc(=O)[nH]c23)c1 ?
Completion: 24.4%
